target: ACE2 (human, UniProt Q9BYF1 18-740)
Sequence (Q9BYF1 18-740 limits assumed): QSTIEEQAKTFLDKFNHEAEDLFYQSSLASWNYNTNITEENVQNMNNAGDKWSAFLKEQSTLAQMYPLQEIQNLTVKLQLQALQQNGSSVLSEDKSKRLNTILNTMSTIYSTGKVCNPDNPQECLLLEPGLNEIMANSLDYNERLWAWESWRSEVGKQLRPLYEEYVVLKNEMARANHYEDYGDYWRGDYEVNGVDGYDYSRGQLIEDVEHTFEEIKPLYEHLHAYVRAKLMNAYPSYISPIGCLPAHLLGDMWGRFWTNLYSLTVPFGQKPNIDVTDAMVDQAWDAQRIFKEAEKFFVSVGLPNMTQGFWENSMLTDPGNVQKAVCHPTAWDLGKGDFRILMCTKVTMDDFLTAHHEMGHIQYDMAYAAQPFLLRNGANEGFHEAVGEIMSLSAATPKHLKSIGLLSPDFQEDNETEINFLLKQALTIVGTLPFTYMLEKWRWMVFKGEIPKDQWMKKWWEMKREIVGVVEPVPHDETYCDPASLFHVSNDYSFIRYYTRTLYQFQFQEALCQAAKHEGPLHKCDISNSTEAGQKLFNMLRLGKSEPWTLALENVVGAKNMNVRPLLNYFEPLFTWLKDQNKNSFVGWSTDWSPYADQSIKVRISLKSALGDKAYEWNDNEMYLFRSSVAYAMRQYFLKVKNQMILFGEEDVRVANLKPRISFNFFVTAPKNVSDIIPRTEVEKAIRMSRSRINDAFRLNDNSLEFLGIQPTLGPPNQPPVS
RESULT_TYPE: kon (M⁻¹ s⁻¹)
Report the figure in M⁻¹ s⁻¹ without appending any unit label.

Some solved entries appear below for comparison.
{"columns": ["BINDER", "READING_UNIT", "kon"],
 "data": [
  ["ACE2 variant antibody 4-41 (VHH) VHH: EVQLVESGGGLVQPGGSLRLSCAASGRTFGDYIMGWFRQAPGKERESVAAINWSGGTTPYADSVKGRFTISADNSKNTAYLQMNSLKPEDTAVYYCATDPPLFCCHVDLWGQGTLVTVSS", "M⁻¹ s⁻¹", 180000],
  ["ACE2 variant antibody 3-12 (antibody, V domains shown) VH: EVQLLESGGGLVQPGGSLRLSCAASGFTFRSHAMNWVRQAPGKGLEWVSAISGSGGSTNYADSVKGRFTISRDNSKNTLYLQMNSLRAEDTAVYYCARGLKFLEWLPSAFDIWGQGTLVTVSS VL: DIQMTQSPSSLSASVGDRVTITCRTSQSINTYLNWYQQKPGKAPKLLIYGASNVQSGVPSRFSGSGSGTDFTLTISSLQPEDFATYYCQQSYRIPRTFGQGTKVEIK", "M⁻¹ s⁻¹", 15500]
]}

Inquiry: Fill in kon for record ACE2 variant antibody 4-57 (VHH) VHH: EVQLVESGGGLVQPGGSLRLSCAASGLTFRNYAMGWFRQAPGKEREFVAAIGSGGYTDYADSVKGRFTISADNSKNTAYLQMNSLKPEDTAVYYCAVKPGWVARDPSQYNWGQGTLVTVSS
Reply text: 307000
